Method summary: xn = mol fraction of the nth substance listed
Applied conditions: 333 K; 101 kPa; Liquid; x1 = 0
Parameter binary diffusion coefficient: see the listing below.
Report only the number, with the unit m2/s understood.

{"Molecule": "CCCCn1cc[n+](C)c1.F[B-](F)(F)F [1-butyl-3-methylimidazolium tetrafluoroborate] + O", "binary diffusion coefficient [m2/s]": "2.26e-09"}
{"Molecule": "CCCCCC[n+]1ccn(C)c1.O=S(=O)([N-]S(=O)(=O)C(F)(F)F)C(F)(F)F + O", "binary diffusion coefficient [m2/s]": "1.63e-09"}
{"Molecule": "CCCC[n+]1ccn(C)c1.O=S(=O)([N-]S(=O)(=O)C(F)(F)F)C(F)(F)F + O", "binary diffusion coefficient [m2/s]": "1.74e-09"}
{"Molecule": "CCn1cc[n+](C)c1.O=S(=O)([N-]S(=O)(=O)C(F)(F)F)C(F)(F)F + CO", "binary diffusion coefficient [m2/s]": "2.69e-09"}
{"Molecule": "CCn1cc[n+](C)c1.O=S(=O)([N-]S(=O)(=O)C(F)(F)F)C(F)(F)F + O", "binary diffusion coefficient [m2/s]": "1.85e-09"}

# binary diffusion coefficient lookup, item CCCCCC[n+]1ccn(C)c1.O=S(=O)([N-]S(=O)(=O)C(F)(F)F)C(F)(F)F + CO
2.21e-09

Param item: CCCCCC[n+]1ccn(C)c1.O=S(=O)([N-]S(=O)(=O)C(F)(F)F)C(F)(F)F + CC#N
2.99e-09

// next record CCCCCCCCn1cc[n+](C)c1.O=S(=O)([N-]S(=O)(=O)C(F)(F)F)C(F)(F)F + O
1.47e-09
